src = ChEMBL document CHEMBL1275297

Biological target: Cytochrome P450 2B1 (Rattus norvegicus, UniProt P00176)
Sequence (P00176 whole entry): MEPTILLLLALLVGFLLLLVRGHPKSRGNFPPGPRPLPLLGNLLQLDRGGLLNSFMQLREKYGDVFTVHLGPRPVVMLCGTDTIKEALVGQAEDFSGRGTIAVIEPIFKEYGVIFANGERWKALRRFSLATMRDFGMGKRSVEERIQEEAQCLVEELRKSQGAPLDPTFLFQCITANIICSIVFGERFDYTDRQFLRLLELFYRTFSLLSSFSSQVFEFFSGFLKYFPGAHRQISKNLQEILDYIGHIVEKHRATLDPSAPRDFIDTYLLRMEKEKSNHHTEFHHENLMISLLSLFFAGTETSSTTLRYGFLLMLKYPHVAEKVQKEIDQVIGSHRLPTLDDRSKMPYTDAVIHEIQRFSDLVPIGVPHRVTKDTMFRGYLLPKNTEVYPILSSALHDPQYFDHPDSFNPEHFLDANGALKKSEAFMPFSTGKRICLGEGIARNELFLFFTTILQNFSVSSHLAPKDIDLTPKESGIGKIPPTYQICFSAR
reported endpoint: Kd (µM)
Response body: numeric value in µM, unit text excluded.

Given "O=C(O)CCC(=O)Nc1ccc(O)cc1" , state its recorded Kd.
1.12

---

Assay: Binding affinity to human CYP1A1-heme complex
reported endpoint: pKd
Formally, pKd is defined as -log10 of the concentration c, with c in mol/L.

Given CC(=O)Nc1ccc(O)cc1 [ACETAMINOPHEN] , state its recorded pKd.
5.24

Can you check "O=C(O)CCC(=O)Nc1ccc(O)cc1" next?
6.10

Can you check "O=C1CCC(=O)N1c1ccc(O)cc1" next?
5.40

---

I'd be grateful if you could share measured Kd for these entries.
Assay: Binding affinity to rat CYP2B1-heme complex

Given "O=C1CCC(=O)N1c1ccc(O)cc1" , state its recorded Kd.
1.57 µM

Can you check "O=C(O)CCC(=O)Nc1ccc(O)cc1" next?
1.77 µM

Can you check "CC(=O)Nc1ccc(O)cc1" next?
6.64 µM
